Data export: log10 IC50 values recorded with Acetylcholinesterase (Electrophorus electricus, UniProt O42275).
Sequence (O42275 whole entry): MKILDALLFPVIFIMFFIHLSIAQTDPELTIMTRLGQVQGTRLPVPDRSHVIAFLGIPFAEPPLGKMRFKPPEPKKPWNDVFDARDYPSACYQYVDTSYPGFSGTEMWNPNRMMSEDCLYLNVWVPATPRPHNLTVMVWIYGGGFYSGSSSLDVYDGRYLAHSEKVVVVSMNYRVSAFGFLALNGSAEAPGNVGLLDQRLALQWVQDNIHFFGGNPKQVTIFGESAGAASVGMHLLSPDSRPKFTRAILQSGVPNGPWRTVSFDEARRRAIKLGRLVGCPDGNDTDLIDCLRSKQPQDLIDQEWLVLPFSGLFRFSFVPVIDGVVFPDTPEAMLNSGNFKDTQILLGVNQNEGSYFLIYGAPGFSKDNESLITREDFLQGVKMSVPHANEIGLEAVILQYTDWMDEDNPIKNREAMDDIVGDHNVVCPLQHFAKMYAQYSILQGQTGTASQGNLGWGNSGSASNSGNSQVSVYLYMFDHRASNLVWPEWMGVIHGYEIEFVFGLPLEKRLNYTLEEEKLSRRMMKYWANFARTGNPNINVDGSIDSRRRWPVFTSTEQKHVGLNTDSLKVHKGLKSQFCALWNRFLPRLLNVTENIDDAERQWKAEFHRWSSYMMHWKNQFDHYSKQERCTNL
Hi team, quick reminder: these entries are log10 of IC50 (nM).

Study these solved cases before continuing.
>  <chemical smiles>
CCOc1ccc2c(c1)O/C(=C\c1cc[n+](Cc3ccccc3F)cc1)C2=O

>  <log10 IC50>
1.51

$$$$
>  <chemical smiles>
COc1ccc2c(c1)O/C(=C\c1cc[n+](Cc3ccccc3C)cc1)C2=O

>  <log10 IC50>
1.83

$$$$
>  <chemical smiles>
COc1ccc2c(c1)O/C(=C\c1cc[n+](Cc3cccc(C)c3)cc1)C2=O

>  <log10 IC50>
2.09

$$$$
>  <chemical smiles>
CCCOc1ccc2c(c1)O/C(=C\c1cc[n+](Cc3ccccc3C)cc1)C2=O

>  <log10 IC50>
2.52

$$$$

What measured log10 IC50 is associated with "CCCOc1ccc2c(c1)O/C(=C\c1cc[n+](Cc3ccc(C)cc3)cc1)C2=O" on Acetylcholinesterase (Electrophorus electricus, UniProt O42275)?
2.79

Repeat with "CCCOc1ccc2c(c1)O/C(=C\c1cc[n+](Cc3ccc(F)cc3)cc1)C2=O"
1.83

Repeat with "CCCOc1ccc2c(c1)O/C(=C\c1cc[n+](Cc3ccccc3F)cc1)C2=O"
1.70

Repeat with "CCCOc1ccc2c(c1)O/C(=C\c1cc[n+](Cc3cccc(C)c3)cc1)C2=O"
2.37

Repeat with "CCCOc1ccc2c(c1)O/C(=C\c1cc[n+](Cc3cccc(F)c3)cc1)C2=O"
2.03

Repeat with "COc1ccc2c(c1)O/C(=C\c1cc[n+](Cc3ccccc3)cc1)C2=O"
1.61

Repeat with "COc1ccc2c(c1)O/C(=C\c1cc[n+](Cc3ccccc3F)cc1)C2=O"
1.00

Repeat with "COc1ccc2c(c1)O/C(=C\c1cc[n+](Cc3cccc(F)c3)cc1)C2=O"
1.78
